Value source: ChEMBL document CHEMBL1201862

tested on: PC-3; assay: NCI tumour cell line growth inhibition, 48 h
Calls of active or inactive are those of the source. Cut-off read from the data, not from the text of the source: active = GI50 up to about 1.1 µM and inactive = higher.
Your reply should match one of these outcome classes. active, inactive

COMPOUND	LABEL VALUE
CN(C)C(=O)c1nnsc1NN=O	inactive
CCOC(=O)CCC(C(=O)OCC)n1nnc2ccc(Nc3c(C)[n+]([O-])c4cc(F)c(OCC)cc4[n+]3[O-])cc21 (stereo not given)	inactive

Which outcome was assigned to CC(=O)OC1C(C)OC(OC(=O)C2CCC3C(C2)OC2(CC(OC(=O)/C=C/c4ccccc4)C(C)CO2)C32CO2)C(OC2OC(C)C(O)C(OC(C)=O)C2O)C1O (stereo not given) in this test?
active

Which outcome was assigned to CC1=NOC(C)(O)/C1=N/O (stereo not given) in this test?
inactive

Which outcome was assigned to O=C(CCN1CC2CCC(CC2)C1)c1cccs1 in this test?
inactive

Which outcome was assigned to Cc1cc(-c2nc3cc(F)c(F)cc3s2)ccc1N in this test?
inactive

Which outcome was assigned to COC(=O)/C=C\[C@H]1[C@H](C)N1S(=O)(=O)c1ccc(C)cc1 (stereo not given in full) in this test?
inactive

Which outcome was assigned to N=C(N)N/N=C(\c1ccc(Cl)cc1)C1CC1 in this test?
inactive

Which outcome was assigned to Cc1nc2sccn2c1/C=C1/C(=O)Nc2cccc(Cl)c21 in this test?
inactive

Which outcome was assigned to CCOC(=O)C(NC(=O)c1ccccc1)(Nc1ccc(S(=O)(=O)Nc2cc(C)nc(C)n2)cc1)C(F)(F)F (stereo not given) in this test?
inactive

----------
test system: SN12C; assay: NCI tumour cell line growth inhibition, 48 h
Active and inactive are the calls of the source. No stated cut-off is given here; in the data, active = GI50 up to about 1.1 µM and inactive = higher.
In this section we review reported GI50 values for a set of compounds.

Recorded results for 7 compounds are shown here.
COMPOUND	READOUT KIND	RESULT
CNCCCn1c2ccccc2c2c3c(c(-c4ccsc4)cc21)C(=O)NC3=O	GI50	1.29 µM (inactive)
COC(=O)/C=C(\C(=O)OC)C1C(=O)Oc2c(C)c(=O)c3ccccc3n21 (stereo not drawn)	GI50	> 100 µM (inactive)
Cc1c(O)c(OC2OC(CO)C(O)C(O)C2O)cc2c1CC[C@@H]1C2(C)C(=O)C[C@]2(C)[C@@H]([C@@](C)(O)C3CCC(C)(C)O3)[C@H](O)C[C@@]12C (stereo partly drawn)	GI50	> 100 µM (inactive)
[N-]=[N+]=Nc1ccc(CNc2cc(=O)[nH]c(=O)[nH]2)cc1	GI50	> 100 µM (inactive)
C/C(=N\NC(=O)c1ccccc1O)c1cccc(/C(C)=N/NC(=O)c2ccccc2O)n1	GI50	6.07 µM (inactive)
CC(=O)NC1COC(COC(=O)CCCCCCCCCCNC(=O)c2ccc([N+](=O)[O-])c3c(=O)c4ccccc4[nH]c23)C(O)C1OC(C)C(=O)NC(C(=O)NC(CCC(N)=O)C(=O)OCc1ccccc1)C(C)C (stereo not drawn)	GI50	32.6 µM (inactive)
O=C1c2ccccc2-c2c1c1ccccc1c(=O)n2CCO	GI50	10.8 µM (inactive)

Now consider the entry below.
If you can, please state the reported GI50 value of Cc1cc(S(=O)(=O)Nc2nc3ccsc3c(=O)n2N)c(S)cc1Cl .
> 100 µM (inactive)

----------
In this section we review reported GI50 values for a set of compounds.
test system: M19-MEL; assay: NCI tumour cell line growth inhibition, 48 h
Calls of active or inactive are those of the source. Cut-off read from the data, not from the text of the source: active = GI50 up to about 1.1 µM and inactive = higher.

Recorded results for 3 compounds are shown here.
> print(dat)
                                   compound  subject.of.test               result
1  Cc1cc(=O)oc2c(C3=NN(C=O)C(c4ccccc4)C3)c(O)ccc12 (centres undefined)          M19-MEL  > 100 µM (inactive)
2  O/N=C1/C(=C/c2ccc(F)cc2)CCCC1C(NO)c1ccc(F)cc1 (centres undefined)          M19-MEL   38.3 µM (inactive)
3            Cc1c2ccc3ccccc3c2c[n+]2ccccc12          M19-MEL   4.48 µM (inactive)

If you can, please state the reported GI50 value of CCN(CC)CCOC(c1ccccc1)c1ccccc1.CCOC(=O)Nc1ccc(S(=O)(=O)OC)cc1.CCOC(=O)Nc1ccc(S(=O)(=O)OC)cc1.Nc1ccc(C(=O)O)c(O)c1 .
> 100 µM (inactive)
